assay: qHTS of small molecules that selectively kill Giardia lamblia: Hit Validation.;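 also: viability measured as ATP content by luminescence so killing lowers signal; trophozoites exposed to compounds for 48 h anaerobically at 37 °C; nearly all actives have a fitted effect of over 65% in size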; conditions: Giardia lamblia trophozoite viability, dose-response; series mostly up to 38.3 µM
In all, about 1,300 compounds went through this assay and about 1,000 (77%) were called active. Not shown: some 7% with an inconclusive outcome. Calls follow the shape of the dose curve; as a rule, active = well fitted inhibition curve with a large enough effect; inconclusive = small, poorly fitted or top-dose-only effect; inactive = no such curve, though single readings can be large or run the other way. The set was probably picked from earlier hits. This is one part of the list.
Labels: active, inactive

- CC1CCCCC1NC(=O)NC(=O)COC(=O)c1cncc(Br)c1 (stereo unspecified): inactive
- O=[N+]([O-])c1ccc(/C=C/C2=NN(c3ccccc3)C(c3ccco3)C2)o1 (stereo unspecified): active
- CCc1ccc2nc3sc(C(=O)O)cc3cc2c1: active
- O=C(CCN1C(=O)c2ccccc2C1=O)NCc1ccc(F)cc1: inactive
- COC(=O)c1ccccc1NC(=O)N1c2ccccc2Sc2ccccc21: active
- O=C(COc1cccnc1[N+](=O)[O-])NCc1ccc(F)cc1: active
- COc1cccc(NC(=O)COc2cccnc2[N+](=O)[O-])c1: active
- CC(C)c1ccc(Nc2nnc(SCC(=O)Nc3ncc(S(=O)(=O)c4ccc([N+](=O)[O-])cc4)s3)s2)cc1: active
- O=C(COc1cccnc1[N+](=O)[O-])Nc1ccc(F)cc1: active
- Cc1cc(NC(=O)c2ccc(C(C)(C)C)cc2)no1: active
- Cc1cc(NC(=O)c2ccc3c(c2)OCCO3)no1: active

###

assay: qHTS of small molecules that selectively kill Giardia lamblia: Hit Validation.;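 also: viability measured as ATP content by luminescence so killing lowers signal; trophozoites exposed to compounds for 48 h anaerobically at 37 °C; nearly all actives have a fitted effect of over 65% in size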; conditions: Giardia lamblia trophozoite viability, dose-response; series mostly up to 38.3 µM
The whole screen tested about 1,300 compounds, of which about 1,000 (77%) were called active. Not shown: some 7% with an inconclusive outcome. The call rests on the fitted dose curve; in most records, active means well fitted inhibition curve with a large enough effect; inconclusive means small, poorly fitted or top-dose-only effect; inactive means no such curve, though single readings can be large or run the other way. So high a share suggests a set chosen from earlier hits. Some of the results follow.
Labels: active, inactive

* C[C@@H]1CN([C@H](C)CO)C(=O)c2cc(NC(=O)Nc3ccc4c(c3)OCO4)ccc2O[C@H]1CN(C)Cc1ccncc1 | inactive
* C[C@@H]1CN([C@@H](C)CO)C(=O)c2cccc(NS(=O)(=O)c3cccs3)c2O[C@H]1CN(C)Cc1ccc(C(F)(F)F)cc1 | active
* COc1cc2nc(N3CCCCC3)nc(NC3CCN(Cc4ccccc4)CC3)c2cc1OC | active
* N#C/C(=C(/O)c1ccc([N+](=O)[O-])s1)c1nc2ccccc2[nH]1 | active
* O=C(CN1CCN(c2ccccc2)CC1)Nc1scc2c1c(=O)oc1ccccc12 | inactive
* COc1cc2nc(N3CCN(C)CC3)nc(NC3CC3)c2cc1OC | active
* Cn1c(/C(C#N)=C(\O)c2ccc([N+](=O)[O-])s2)nc2ccccc21 | active
* O=[N+]([O-])c1ccc(CN2CCN(c3ccc(F)cc3)CC2)o1 | active
* O=[N+]([O-])c1ccc(CN2CCN(c3ccc(Cl)cc3)CC2)o1 | active

###

assay: qHTS of small molecules that selectively kill Giardia lamblia: Hit Validation.; also: potency is read from the fitted curve at half-maximal effect;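 also: viability measured as ATP content by luminescence so killing lowers signal; trophozoites exposed to compounds for 48 h anaerobically at 37 °C; nearly all actives have a fitted effect of over 65% in size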; conditions: Giardia lamblia trophozoite viability, dose-response; series mostly up to 38.3 µM
The campaign covered roughly 1,300 compounds. About 1,000 (77%) were called active. Inconclusive results (about 7%) are left out. So high a share suggests a set chosen from earlier hits. This is one part of the list.
result_type: Potency

* CC(C)N1CCc2c(sc(NC(=O)c3cc4cc([N+](=O)[O-])ccc4s3)c2C(N)=O)C1 | 2.59 µM (active)
* O=C(COc1cccnc1[N+](=O)[O-])Nc1ccc(Cl)cc1F | 1.83 µM (active)
* O=C(Nc1ccc(N2CCOCC2)cc1)c1ccc([N+](=O)[O-])o1 | 0.579 µM (active)
* CC(C)OC(=O)Nc1ccc2c(c1)N(C(=O)N1CCN(C)CC1)c1ccccc1CC2 | 4.1 µM (active)
* Cc1c(Cl)cccc1N=c1c([N+](=O)[O-])nn(-c2ccccc2)n1O | 0.516 µM (active)
